This section presents compounds with their documented relative viability values.
- System: NCI-H441
- protocolDescription: relative viability (nuclei count vs DMSO), 5 days (fraction); higher = more cells survive
- experimentalSetup: first compound 0.08 µM

Illustrative cases are given below, each with its answer.
{"columns": ["compound", "relative viability"],
 "data": [
  ["CCCCCCCCCCCC1=C(O)C(=O)C=C(O)C1=O [Embelin] + COc1cccc2cc(-c3nc([C@H]4CC[C@H](C(=O)O)CC4)n4ncnc(N)c34)[nH]c12 [OSI-027] (partner 0.5 µM)", 0.688],
  ["CCCCCCCCCCCC1=C(O)C(=O)C=C(O)C1=O [Embelin] + Cc1cc(Nc2cc(N3CCN(C)CC3)nc(Sc3ccc(NC(=O)C4CC4)cc3)n2)n[nH]1 [Tozasertib] (partner 0.1 µM)", 0.588]
]}

As a next step, examine the compound that follows.
**Q:** Write down the reported relative viability of CCCCCCCCCCCC1=C(O)C(=O)C=C(O)C1=O [Embelin] + N=C(N)NC(=N)NCCc1ccccc1 [Phenformin] (partner 250 µM) , test system: NCI-H441.
**A:** 0.698

###

This section presents compounds with their documented relative viability values.
- System: NCI-H1651
- protocolDescription: relative viability (nuclei count vs DMSO), 5 days (fraction); higher = more cells survive
- experimentalSetup: first compound 0.03162 µM

{"columns": ["compound", "experimentalSystem", "relative viability"],
 "data": [
  ["CC(C)Oc1cc(Nc2nc(N[C@@H](C)c3ccc(F)cn3)ncc2Cl)n[nH]1 [AZ23] + CS(=O)(=O)CCNCc1ccc(-c2ccc3ncnc(Nc4ccc(OCc5cccc(F)c5)c(Cl)c4)c3c2)o1 [Lapatinib] (partner 2 µM)", "NCI-H1651", 0.921]
]}

**Q:** For the compound shown here, CC(C)Oc1cc(Nc2nc(N[C@@H](C)c3ccc(F)cn3)ncc2Cl)n[nH]1 [AZ23] + Cc1nc(Nc2ncc(C(=O)Nc3c(C)cccc3Cl)s2)cc(N2CCN(CCO)CC2)n1 [Dasatinib] (partner 0.075 µM) , give the reported relative viability.
**A:** 0.471

###

- System: NCI-H647
- protocolDescription: relative viability (nuclei count vs DMSO), 5 days (fraction); higher = more cells survive
- experimentalSetup: first compound 0.1265 µM
This section presents compounds with their documented relative viability values.

Illustrative cases are given below, each with its answer.
{"columns": ["compound", "relative viability"],
 "data": [
  ["C[C@@H]1CN(CC(=O)Nc2ccc3c(c2)Cc2cccc(-c4cc(=O)cc(N5CCOCC5)o4)c2S3)C[C@H](C)O1 + O=C(c1cc(Cc2n[nH]c(=O)c3ccccc23)ccc1F)N1CCN(C(=O)C2CC2)CC1 [Olaparib] (partner 8 µM)", 0.436],
  ["COc1cc(N2CCC(C(N)=O)CC2)ccc1Nc1nc(N)c(Cl)c(Nc2ccccc2S(=O)(=O)C(C)C)n1 [HG-5-88-01] + Cc1nc(NC(=O)N2CCC[C@H]2C(N)=O)sc1-c1ccnc(C(C)(C)C(F)(F)F)c1 [Alpelisib] (partner 2 µM)", 1.15],
  ["Clc1ccc(Nc2nnc(Cc3ccncc3)c3ccccc23)cc1 [Vatalanib] + COc1cc2c(Oc3ccc(NC(=O)C4(C(=O)Nc5ccc(F)cc5)CC4)cc3F)ccnc2cc1OCCCN1CCOCC1 [Foretinib] (partner 0.25 µM)", 1.2]
]}

As a next step, examine the compound that follows.
**Q:** For the compound shown here, Clc1ccc(Nc2nnc(Cc3ccncc3)c3ccccc23)cc1 [Vatalanib] + CS(=O)(=O)CCNCc1ccc(-c2ccc3ncnc(Nc4ccc(OCc5cccc(F)c5)c(Cl)c4)c3c2)o1 [Lapatinib] (partner 2 µM) , give the reported relative viability.
**A:** 1.07

###

This section presents compounds with their documented relative viability values.
- System: EPLC-272H
- protocolDescription: relative viability (nuclei count vs DMSO), 5 days (fraction); higher = more cells survive
- experimentalSetup: first compound 0.4 µM
Simply state the number, no unit and no words.

{"columns": ["compound", "resultValue"],
 "data": [
  ["COc1cc(N2CCC(C(N)=O)CC2)ccc1Nc1nc(N)c(Cl)c(Nc2ccccc2S(=O)(=O)C(C)C)n1 [HG-5-88-01] + Nc1nc2[nH]cc(CCc3ccc(C(=O)N[C@@H](CCC(=O)O)C(=O)O)cc3)c2c(=O)[nH]1 [Pemetrexed] (partner 0.2 µM)", 0.319],
  ["COc1cc(N2CCC(C(N)=O)CC2)ccc1Nc1nc(N)c(Cl)c(Nc2ccccc2S(=O)(=O)C(C)C)n1 [HG-5-88-01] + CC(=O)c1c(C)c2cnc(Nc3ccc(N4CCNCC4)cn3)nc2n(C2CCCC2)c1=O [Palbociclib] (partner 0.5 µM)", 0.335],
  ["C[C@@H]1CN(CC(=O)Nc2ccc3c(c2)Cc2cccc(-c4cc(=O)cc(N5CCOCC5)o4)c2S3)C[C@H](C)O1 + COc1cccc2cc(-c3nc([C@H]4CC[C@H](C(=O)O)CC4)n4ncnc(N)c34)[nH]c12 [OSI-027] (partner 0.5 µM)", 0.301],
  ["Clc1ccc(Nc2nnc(Cc3ccncc3)c3ccccc23)cc1 [Vatalanib] + CC1(C)CCC(c2ccc(Cl)cc2)=C(CN2CCN(c3ccc(C(=O)NS(=O)(=O)c4ccc(N[C@H](CCN5CCOCC5)CSc5ccccc5)c(S(=O)(=O)C(F)(F)F)c4)cc3)CC2)C1 [Navitoclax] (partner 0.5 µM)", 1.05],
  ["COc1cc(N2CCC(C(N)=O)CC2)ccc1Nc1nc(N)c(Cl)c(Nc2ccccc2S(=O)(=O)C(C)C)n1 [HG-5-88-01] + COc1cc2c(Oc3ccc(NC(=O)C4(C(=O)Nc5ccc(F)cc5)CC4)cc3F)ccnc2cc1OCCCN1CCOCC1 [Foretinib] (partner 0.25 µM)", 0.593]
]}

**Q:** For the compound shown here, COc1cc(N2CCC(C(N)=O)CC2)ccc1Nc1nc(N)c(Cl)c(Nc2ccccc2S(=O)(=O)C(C)C)n1 [HG-5-88-01] + CS(=O)(=O)N1CCN(Cc2cc3nc(-c4cccc5[nH]ncc45)nc(N4CCOCC4)c3s2)CC1 [Pictilisib] (partner 1 µM) , give the reported relative viability.
**A:** 0.29

**Q:** Again, but for Clc1ccc(Nc2nnc(Cc3ccncc3)c3ccccc23)cc1 [Vatalanib] + CCNC(=O)c1noc(-c2cc(C(C)C)c(O)cc2O)c1-c1ccc(CN2CCOCC2)cc1 [Luminespib] (partner 0.01 µM)
**A:** 0.26

**Q:** Again, but for COc1cc(N2CCC(C(N)=O)CC2)ccc1Nc1nc(N)c(Cl)c(Nc2ccccc2S(=O)(=O)C(C)C)n1 [HG-5-88-01] + COc1cccc2cc(-c3nc([C@H]4CC[C@H](C(=O)O)CC4)n4ncnc(N)c34)[nH]c12 [OSI-027] (partner 0.5 µM)
**A:** 0.294

###

This section presents compounds with their documented relative viability values.
- System: NCI-H596
- protocolDescription: relative viability (nuclei count vs DMSO), 5 days (fraction); higher = more cells survive
- experimentalSetup: first compound 2.53 µM
Simply state the number, no unit and no words.

**Q:** For the compound shown here, CCCCCCCCCCCC1=C(O)C(=O)C=C(O)C1=O [Embelin] + Cc1nc(NC(=O)N2CCC[C@H]2C(N)=O)sc1-c1ccnc(C(C)(C)C(F)(F)F)c1 [Alpelisib] (partner 2 µM) , give the reported relative viability.
**A:** 0.482

**Q:** Again, but for CCCCCCCCCCCC1=C(O)C(=O)C=C(O)C1=O [Embelin] + Cc1cc(Nc2cc(N3CCN(C)CC3)nc(Sc3ccc(NC(=O)C4CC4)cc3)n2)n[nH]1 [Tozasertib] (partner 0.1 µM)
**A:** 0.952

**Q:** Again, but for CCCCCCCCCCCC1=C(O)C(=O)C=C(O)C1=O [Embelin] + CC(C)C[C@H](NC(=O)[C@H](Cc1ccccc1)NC(=O)c1cnccn1)B(O)O [Bortezomib] (partner 0.002 µM)
**A:** 1.3

###

- System: 201T
- protocolDescription: relative viability (nuclei count vs DMSO), 5 days (fraction); higher = more cells survive
- experimentalSetup: first compound 4 µM
endpointName: relative viability
Simply state the number, no unit and no words.

{"columns": ["compound", "resultValue"],
 "data": [
  ["C[C@@H]1CN(CC(=O)Nc2ccc3c(c2)Cc2cccc(-c4cc(=O)cc(N5CCOCC5)o4)c2S3)C[C@H](C)O1 + COc1cccc2cc(-c3nc([C@H]4CC[C@H](C(=O)O)CC4)n4ncnc(N)c34)[nH]c12 [OSI-027] (partner 0.5 µM)", 0.757]
]}

As a next step, examine the compound that follows.
**Q:** For the compound shown here, Clc1ccc(Nc2nnc(Cc3ccncc3)c3ccccc23)cc1 [Vatalanib] + CC1(C)CCC(c2ccc(Cl)cc2)=C(CN2CCN(c3ccc(C(=O)NS(=O)(=O)c4ccc(N[C@H](CCN5CCOCC5)CSc5ccccc5)c(S(=O)(=O)C(F)(F)F)c4)cc3)CC2)C1 [Navitoclax] (partner 0.5 µM) , give the reported relative viability.
**A:** 1.21
